What pIC50 was measured for each of the following?
- target_or_test_system: PDE5 enzyme (Homo sapiens, UniProt O76074)
- Construct: The PDE5 enzyme isolated from human platelets; from tissue; host or cells: human platelets
- assay_text: Method 1: Human Platelet PDE5 Enzyme Inhibition Scintillation Proximity Assay
- Type: biochemical
- experimental_conditions: METHOD 1: PDE5 IC50, Table B, WO2004096810 examples
Give bare numbers, as −log10 of the molar value.

compound: COCc1nn(CCOCC(F)(F)F)c2c(Nc3cccc(C)c3)nc(N3CCN[C@H](C)C3)nc12
target_or_test_system: PDE5 enzyme (Homo sapiens, UniProt O76074)
pIC50: 8.92
--
compound: CCOCCn1nc(C)c2nc(N3CCN[C@H](C(C)C)C3)nc(Nc3ccncn3)c21
target_or_test_system: PDE5 enzyme (Homo sapiens, UniProt O76074)
pIC50: 7.72
--
compound: CNc1nc(Nc2cc(C)ccn2)c2c(n1)c(C)nn2CCCOC
target_or_test_system: PDE5 enzyme (Homo sapiens, UniProt O76074)
pIC50: 6.62
--
compound: CCc1nn(CCOC)c2c(Nc3cc(C)ccn3)nc(NC)nc12
target_or_test_system: PDE5 enzyme (Homo sapiens, UniProt O76074)
pIC50: 7.79
--
compound: CCOCCn1nc(C)c2nc(N3CC(N(C)C)C3)nc(Nc3cc(C)ccn3)c21
target_or_test_system: PDE5 enzyme (Homo sapiens, UniProt O76074)
pIC50: 8.20
--
compound: Cc1ccnc(Nc2nc(N3CCNCC3)nc3c(C)n(CC4CCC4)nc23)c1
target_or_test_system: PDE5 enzyme (Homo sapiens, UniProt O76074)
pIC50: 6.27
--
compound: COCCn1nc(C)c2nc(N3C[C@@H](C)NC[C@@H]3C)nc(Nc3ccncn3)c21
target_or_test_system: PDE5 enzyme (Homo sapiens, UniProt O76074)
pIC50: 8.27
--
compound: CCCc1nn(C)c2c(Nc3ccc(C)cn3)nc(N3CCN(C)CC3)nc12
target_or_test_system: PDE5 enzyme (Homo sapiens, UniProt O76074)
pIC50: 5.90
--
compound: CCOCCn1nc(C)c2nc(N3C[C@@H]4C[C@H]3CN4)nc(Nc3ccncn3)c21
target_or_test_system: PDE5 enzyme (Homo sapiens, UniProt O76074)
pIC50: 7.31
--
compound: CCOCCn1nc(C)c2nc(N3C[C@H](C)NC[C@H]3C)nc(Nc3ccncn3)c21
target_or_test_system: PDE5 enzyme (Homo sapiens, UniProt O76074)
pIC50: 9.48

For every item below, please supply its pIC50.
1. CCCc1nn(C)c2c(Nc3cc(C)ccn3)nc(N3CCN[C@H](C)C3)nc12
2. CCOCCn1nc(CC)c2nc(N(C)[C@H]3CCN(C)C3)nc(Nc3ccncn3)c21
3. CCOCCn1nc(CC)c2nc(N3C[C@@H](C)NC[C@@H]3C)nc(Nc3ccncn3)c21
4. CCOCCn1nc(C)c2nc(N3CCN[C@H](C)C3)nc(Nc3cccc(OC)n3)c21
5. Cc1ccnc(Nc2nc(N3CCNCC3)nc3c(C)nn(CC4CCCO4)c23)c1 (stereo not drawn)

[6.48, 9.00, 8.74, 9.25, 7.94]

---

- assay_text: Method 11: Single Dose Pharmacokinetics and Oral Bioavailability in Male Sprague-Dawley Rat
- Assay type: in vivo
- experimental_conditions: plasma, po, 2 mg/kg, mean
measured_quantity: half-life
Note: state the figure and append the unit.

Example cases with answers are listed next.
query_smiles: Cc1ccnc(Nc2nc(N3CCC(C(=O)O)CC3)nc3c(C)nn(CCOCC(F)(F)F)c23)c1
measurement: 6.7 h
//
query_smiles: Cc1cc(Nc2nc(N3CCC(C(=O)O)CC3)nc3c(C)nn(CCOCC(F)(F)F)c23)ncn1
measurement: 3.4 h

Please look up its half-life: CCc1nn(CCOCC(F)(F)F)c2c(Nc3cc(C)ncn3)nc(N3CCC(C(=O)O)CC3)nc12 3.8 h

---

- target_or_test_system: PDE11 enzyme (Homo sapiens, UniProt Q9HCR9, DUP921-921)
- Construct: FLAG (N); made in house; host or cells: Sf9 insect cells (baculovirus, pFastBac)
- Sequence (Q9HCR9 with tags, fused parts or gaps DUP921-921 limits assumed): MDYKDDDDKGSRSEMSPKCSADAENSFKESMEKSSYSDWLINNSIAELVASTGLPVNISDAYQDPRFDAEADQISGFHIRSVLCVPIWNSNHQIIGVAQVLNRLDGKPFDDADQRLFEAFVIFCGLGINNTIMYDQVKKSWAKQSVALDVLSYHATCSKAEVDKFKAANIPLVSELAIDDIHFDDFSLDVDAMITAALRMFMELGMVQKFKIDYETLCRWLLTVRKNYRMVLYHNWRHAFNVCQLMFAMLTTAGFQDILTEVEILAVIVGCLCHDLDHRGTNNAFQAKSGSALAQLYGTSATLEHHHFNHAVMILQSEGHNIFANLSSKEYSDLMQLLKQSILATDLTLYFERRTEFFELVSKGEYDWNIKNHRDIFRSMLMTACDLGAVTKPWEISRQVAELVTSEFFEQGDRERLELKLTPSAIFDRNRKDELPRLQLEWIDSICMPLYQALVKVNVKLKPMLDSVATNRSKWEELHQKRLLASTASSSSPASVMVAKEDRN
- assay_text: Method 3: Human Recombinant PDE11 Enzyme Inhibition Scintillation Proximity Assay (SPA)
- Format: biochemical
- experimental_conditions: Table F, WO2004096810 examples; read-out: METHOD 3: PDE11 IC50
measured_quantity: pIC50
Numbers only, as −log10 of the molar value.

Example cases with answers are listed next.
query_smiles: COCc1nn(CCOCC(F)(F)F)c2c(Nc3cccc(C)n3)nc(N3CCN[C@H](C)C3)nc12
measurement: 6.06

query_smiles: CCOCc1nn(CCOCC(F)(F)F)c2c(Nc3cccc(C)n3)nc(N3CCN[C@H](C)C3)nc12
measurement: 6.03

query_smiles: COCc1nn(CCOCC(F)(F)F)c2c(Nc3cccc(C)c3)nc(N3CCN[C@H](C)C3)nc12
measurement: 6.51

For every item below, please supply its pIC50.
1. CCN(C)c1nc(Nc2ccc(=O)n(C)c2)c2c(n1)c(COC)nn2CCOCC(F)(F)F
2. CCc1nn(CCOCC(F)(F)F)c2c(Nc3cc(C)ncn3)nc(N3CCC(C(=O)O)CC3)nc12
3. Cc1ccnc(Nc2nc(N3CCC(C(=O)O)CC3)nc3c(C)nn(CCOCC(F)(F)F)c23)c1
4. Cc1ccnc(Nc2nc(N(C)[C@H]3CCN(C)C3)nc3c(C)nn(CCOCC(F)(F)F)c23)c1

[5.54, 6.50, 6.37, 6.41]

---

- target_or_test_system: PDE5 enzyme (Homo sapiens, UniProt O76074)
- Construct: The PDE5 enzyme isolated from human platelets; from tissue; host or cells: human platelets
- assay_text: Method 1: Human Platelet PDE5 Enzyme Inhibition Scintillation Proximity Assay
- Assay type: biochemical
- experimental_conditions: METHOD 1: PDE5 IC50, Table B, WO2004096810 examples
Binary label based on IC50 with cut-off 10 nM: below gives label 1, not below gives label 0.

Answered cases to consult:
query_smiles: CCCOCCn1nc(C)c2nc(N3CCN[C@H](C)C3)nc(Nc3ccc(C)cn3)c21
assigned_class: label 1
--
query_smiles: CCc1nn(CCOC)c2c(Nc3cc(C)ccn3)nc(N[C@H](C)CO)nc12
assigned_class: label 0
--
query_smiles: COCCn1nc(C(C)C)c2nc(N3CCNCC3)nc(Nc3ccc(C)cn3)c21
assigned_class: label 0
--
query_smiles: CCc1nn(CCOC)c2c(Nc3cc(C)ccn3)nc(NCCn3cccn3)nc12
assigned_class: label 0
--
query_smiles: COCCCn1nc(C)c2nc(N3CC[C@@H](O)C3)nc(Nc3cc(C)ccn3)c21
assigned_class: label 0
--
query_smiles: CCOCCn1nc(C)c2nc(N(C)[C@H]3CCN(C)C3)nc(Nc3ccncn3)c21
assigned_class: label 1

Turning to the following compound.
Please state whether IC50 is below 10 nM for CCOCCn1nc(C)c2nc(N(C)CC)nc(Nc3ccnc(C)n3)c21 label 0

---

What IC50 was measured for each of the following?
- target_or_test_system: PDE5 enzyme (Homo sapiens)
- Construct: The PDE5 enzyme isolated from human platelets; from tissue; host or cells: human platelets
- assay_text: Method 1: Human Platelet PDE5 Enzyme Inhibition Scintillation Proximity Assay
- Type: biochemical
- experimental_conditions: METHOD 1: PDE5 IC50, Table B, WO2004096810 examples
Numbers only, in nM.

Example cases with answers are listed next.
compound: CCOCCn1nc(C)c2nc(N3CCN[C@H](C)C3)nc(Nc3cc(C)ncn3)c21 [WO2004096810 Example 200]
measured_quantity: IC50
measurement: 4.7
--
compound: CCc1nn(CCOCC(F)(F)F)c2c(Nc3cc(C)ncn3)nc(N3CCC(C(=O)O)CC3)nc12
measured_quantity: IC50
measurement: 0.27
--
compound: CCCc1nn(C)c2c(Nc3cc(C)ccn3)nc(N3CCN[C@@H](C)C3)nc12
measured_quantity: IC50
measurement: 456
--
compound: Cc1ccnc(Nc2nc(N3CCNCC3)nc3c(C)nn(CC4CCCCO4)c23)c1 (centres unmarked)
measured_quantity: IC50
measurement: 0.81
--
compound: CCCc1nn(C)c2c(Nc3ncc[nH]3)nc(NC)nc12
measured_quantity: IC50
measurement: 1550

For every item below, please supply its IC50.
1. CCOCCn1nc(CC)c2nc(N3CCN[C@@H](C(C)C)C3)nc(Nc3ccncn3)c21
2. Cc1ccnc(Nc2nc(N3CCNCC3)nc3c(C)nn(CC(F)(F)F)c23)c1

1: 25.8; 2: 2100

---

What Vd was measured for each of the following?
- assay_text: Method 11: Single Dose Pharmacokinetics and Oral Bioavailability in Male Sprague-Dawley Rat
- Format: in vivo
- experimental_conditions: plasma, iv, 2 mg/kg, mean, read-out: Vdss
One number for each entry, in L/kg.

query_smiles: Cc1ccnc(Nc2nc(N3CCC(C(=O)O)CC3)nc3c(C)nn(CCOCC(F)(F)F)c23)c1
measured_quantity: Vd
units: L/kg
measurement: 0.564
//
query_smiles: Cc1cc(Nc2nc(N3CCC(C(=O)O)CC3)nc3c(C)nn(CCOCC(F)(F)F)c23)ncn1
measured_quantity: Vd
units: L/kg
measurement: 6.11
//
query_smiles: CCOCCn1nc(CC)c2nc(N3CCC(C(=O)O)CC3)nc(Nc3cc(C)ccn3)c21
measured_quantity: Vd
units: L/kg
measurement: 0.715

Now for another entry.
Please look up its Vd: CCc1nn(CCOCC(F)(F)F)c2c(Nc3cc(C)ncn3)nc(N3CCC(C(=O)O)CC3)nc12 5.07
